target: human CSE (hCSE) (Homo sapiens, UniProt P32929)
Sequence (P32929 whole entry): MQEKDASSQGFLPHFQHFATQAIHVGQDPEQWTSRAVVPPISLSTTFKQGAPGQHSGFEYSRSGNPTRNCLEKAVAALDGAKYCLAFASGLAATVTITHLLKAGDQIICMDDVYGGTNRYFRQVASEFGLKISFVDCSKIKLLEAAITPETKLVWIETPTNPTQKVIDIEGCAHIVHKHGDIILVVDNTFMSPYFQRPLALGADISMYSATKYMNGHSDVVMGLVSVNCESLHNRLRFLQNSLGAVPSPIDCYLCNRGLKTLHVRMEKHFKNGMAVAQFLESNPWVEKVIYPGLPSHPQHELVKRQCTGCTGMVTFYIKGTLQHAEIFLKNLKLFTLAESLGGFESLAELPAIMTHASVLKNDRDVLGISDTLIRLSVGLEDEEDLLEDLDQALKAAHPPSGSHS
Experimental Readout: IC50

{"Compound": "Cc1[nH]c2ccccc2c1CCNCc1ccc(/C=C/C(=O)NO)cc1", "IC50": "> 200 µM"}
{"Compound": "O=c1c2ccccc2[se]n1-c1ccccc1", "IC50": "44.3 µM"}
{"Compound": "CC(=O)NO [acetohydroxamic acid]", "IC50": "> 200 µM"}

Turning now to a further compound:
// returns IC50 for CCN(CC)C(=S)SSC(=S)N(CC)CC with human CSE (hCSE) (Homo sapiens, UniProt P32929); value = > 200 µM

---

biological target: H. pylori urease (HPU) (Helicobacter pylori, UniProt P69996); test: cell-based
Sequence (P69996 whole entry): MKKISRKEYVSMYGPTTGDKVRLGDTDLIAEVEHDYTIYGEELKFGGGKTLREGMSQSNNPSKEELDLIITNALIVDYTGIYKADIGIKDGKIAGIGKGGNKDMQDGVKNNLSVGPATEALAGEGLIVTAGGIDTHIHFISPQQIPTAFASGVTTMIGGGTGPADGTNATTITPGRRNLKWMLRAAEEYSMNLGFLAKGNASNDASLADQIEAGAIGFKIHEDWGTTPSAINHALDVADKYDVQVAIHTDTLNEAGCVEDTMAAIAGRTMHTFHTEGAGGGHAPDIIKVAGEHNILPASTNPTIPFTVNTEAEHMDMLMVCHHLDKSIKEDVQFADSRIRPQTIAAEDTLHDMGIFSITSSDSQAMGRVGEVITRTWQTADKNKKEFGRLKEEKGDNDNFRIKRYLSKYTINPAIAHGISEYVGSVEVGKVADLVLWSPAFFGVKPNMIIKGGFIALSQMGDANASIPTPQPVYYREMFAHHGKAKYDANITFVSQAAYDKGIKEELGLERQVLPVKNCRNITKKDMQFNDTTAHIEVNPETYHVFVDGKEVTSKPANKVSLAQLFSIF
Sequence (P14916 whole entry partner): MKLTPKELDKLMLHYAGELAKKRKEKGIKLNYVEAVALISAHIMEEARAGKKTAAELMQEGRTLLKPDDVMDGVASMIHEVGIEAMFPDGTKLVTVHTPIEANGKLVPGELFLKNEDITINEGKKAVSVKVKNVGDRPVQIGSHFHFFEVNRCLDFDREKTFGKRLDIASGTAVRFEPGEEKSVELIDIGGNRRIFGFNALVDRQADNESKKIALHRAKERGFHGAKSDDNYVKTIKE
Measured IC50 values are reported for all entries that follow.
All answers are understood in µM, so give the number only.

{"Compound": "O=C1c2ccccc2[Se](=O)N1c1ccccc1 (stereo not shown) [Ebselen oxide]", "IC50, µM": 23.2}
{"Compound": "O=c1[nH][se]c2ccccc12", "IC50, µM": 18.5}
{"Compound": "CCN(CC)C(=S)SSC(=S)N(CC)CC", "IC50, µM": 36.3}

Continue with the compound presented below.
Reported IC50 of O=c1c2ccccc2[se]n1-c1ccccc1 : 5.7

---

molecular target: jack bean urease (JBU) (Canavalia ensiformis, UniProt P07374); test: tandem-well NH3 assay, salicylic acid-hypochlorite; format: biochemical; conditions: 25 mM urea, 100 μM NiCl2, 50 mM phosphate pH 7.4, 37 °C, 30 min preincubation
Sequence (P07374 whole entry, looked up): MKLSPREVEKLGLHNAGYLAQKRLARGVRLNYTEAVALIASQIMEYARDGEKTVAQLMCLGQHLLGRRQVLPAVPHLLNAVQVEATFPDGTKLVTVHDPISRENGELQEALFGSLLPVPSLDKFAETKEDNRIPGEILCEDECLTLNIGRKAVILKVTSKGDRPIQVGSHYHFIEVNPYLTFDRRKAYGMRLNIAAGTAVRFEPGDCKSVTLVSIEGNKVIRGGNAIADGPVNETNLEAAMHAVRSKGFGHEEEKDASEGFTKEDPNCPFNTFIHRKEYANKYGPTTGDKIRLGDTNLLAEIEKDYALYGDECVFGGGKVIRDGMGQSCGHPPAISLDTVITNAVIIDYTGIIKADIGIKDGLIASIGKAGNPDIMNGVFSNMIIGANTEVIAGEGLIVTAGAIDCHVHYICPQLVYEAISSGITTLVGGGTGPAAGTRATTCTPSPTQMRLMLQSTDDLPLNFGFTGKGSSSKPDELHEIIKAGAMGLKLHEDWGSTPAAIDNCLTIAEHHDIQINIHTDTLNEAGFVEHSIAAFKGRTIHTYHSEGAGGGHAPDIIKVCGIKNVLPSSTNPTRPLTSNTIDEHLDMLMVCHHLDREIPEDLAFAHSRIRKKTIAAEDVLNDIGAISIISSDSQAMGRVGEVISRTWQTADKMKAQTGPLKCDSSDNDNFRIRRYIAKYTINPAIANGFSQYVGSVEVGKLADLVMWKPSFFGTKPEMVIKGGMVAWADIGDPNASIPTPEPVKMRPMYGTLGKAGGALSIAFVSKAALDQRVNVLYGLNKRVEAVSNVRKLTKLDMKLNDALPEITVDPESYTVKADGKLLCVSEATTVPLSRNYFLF
Listed next: entries and their corresponding pIC50.
pIC50 (log units): -log10 of the concentration in mol/L.

{"Compound String": "CSn1[se]c2ccccc2c1=O", "Target Desc": "jack bean urease (JBU) (Canavalia ensiformis, UniProt P07374)", "pIC50": 6.52}

Next item in the queue.
Reported pIC50 ( COc1ccc2c(=O)n(-c3ccccc3)[se]c2c1 ) = 6.52

---

target: H. pylori urease (HPU) (Helicobacter pylori, UniProt P69996); assay: tandem-well NH3 assay, Nessler's reagent, crude extract; type: biochemical
Listing of recorded IC50 by entry.

{"Molecule": "O=C(CCCCCCNC(=O)c1cnc(N(c2ccccc2)c2ccccc2)nc1)NO", "IC50": "> 20 µM"}
{"Molecule": "CNC(=O)[C@H](Cc1c[nH]c2ccccc12)NC(=O)[C@@H](CC(=O)NO)CC(C)C", "IC50": "> 20 µM"}

Then there is this molecule:
The molecule listed as NO [hydroxylamine] shows IC50 equal to > 20 µM

---

The entries below are paired with their reported IC50.
target: UniProt P07374; assay: tandem-well NH3 assay, salicylic acid-hypochlorite; format: biochemical

The value of IC50 measured for the compound NO [hydroxylamine] turned out to be > 20 µM

Reported IC50 ( O=C(CCCCCCNC(=O)c1cnc(N(c2ccccc2)c2ccccc2)nc1)NO [ricolinostat] ) = > 20 µM

Per the record, CNC(=O)[C@H](Cc1c[nH]c2ccccc12)NC(=O)[C@@H](CC(=O)NO)CC(C)C [ilomastat] has IC50 of > 20 µM
